These data points were gathered from patent US8383637B2.

measurement target: β-secretase(BACE) (Homo sapiens)
Construct: purchased Panvera
Sequence (P56817 46-501): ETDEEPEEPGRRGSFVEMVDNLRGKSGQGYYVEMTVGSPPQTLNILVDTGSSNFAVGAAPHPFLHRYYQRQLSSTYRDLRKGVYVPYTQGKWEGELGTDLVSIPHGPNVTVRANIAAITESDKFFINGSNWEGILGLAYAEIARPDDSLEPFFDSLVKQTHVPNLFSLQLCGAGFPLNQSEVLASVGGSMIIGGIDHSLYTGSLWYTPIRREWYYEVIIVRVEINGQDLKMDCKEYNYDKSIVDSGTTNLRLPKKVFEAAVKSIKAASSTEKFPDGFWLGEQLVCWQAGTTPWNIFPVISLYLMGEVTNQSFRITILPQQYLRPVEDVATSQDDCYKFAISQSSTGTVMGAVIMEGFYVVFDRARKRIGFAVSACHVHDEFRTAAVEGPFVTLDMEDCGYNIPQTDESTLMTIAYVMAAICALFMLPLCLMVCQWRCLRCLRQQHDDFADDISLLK
protocol description: BACE FS1% Inhibition Assay
Format: biochemical
conditions: 10 μM test compound; FS1 substrate; read-out: % Inhibition (FS) 10 μM
property label: inhibition at 10 µM (%)

INSERT INTO assay_data (compound, readout_number) VALUES
  ('NC1=Nc2ccc(Oc3ccccc3)cc2CN1CCNC(=O)C1CC1 [Compound 123]', 116),
  ('CCCC(CCC(=O)N(CC)C1CCCCC1)N1Cc2cc(Oc3ccccc3)ccc2N=C1N (stereo not shown) [Compound 127]', 102),
  ('NC1=Nc2ccc(Oc3ccccc3)cc2CN1CCNC(=O)CCC1CCCC1 [Compound 140]', 101),
  ('CCCS(=O)(=O)NCCN1Cc2cc(Oc3ccccc3)ccc2N=C1N [Compound 134]', 104),
  ('NC1=Nc2ccc(Oc3ccccc3)cc2CN1CCNC(=O)C1CCC1 [Compound 130]', 123),
  ('CN(C(=O)c1cccc(C(c2ccccc2)N2Cc3cc(Oc4ccccc4)ccc3N=C2N)c1)C1CCCCC1 (stereo not shown) [Compound 136]', 133),
  ('CCCCC(CC)C(=O)NCCN1Cc2cc(Oc3ccccc3)ccc2N=C1N (stereo not shown) [Compound 122]', 123);
